# System: Micrococcus luteus
# assay-summary: Antibacterial activity against Micrococcus luteus assessed as growth inhibition at 1 mg/well after 24 hrs by Well method
# Assay type: functional
Exercise: for every item that follows, state its recorded inhibition zone (IZ).
Report as a plain number; the unit mm is understood.

Task item: Checklist item: inhibition zone (IZ) tested on Micrococcus luteus, entry `C[C@@H](NCCC(=O)c1cccc(O)c1)[C@@H](O)c1ccccc1.Cl` , value?
Reply: 34

Task item: Continue with `C[C@H](NCCC(=O)c1cccc(O)c1)[C@H](O)c1ccccc1.Cl`
Reply: 35

Task item: Same question for `C[C@@H](NCCC(=O)c1ccccc1)[C@@H](O)c1ccccc1.Cl` please.
Reply: 28

Task item: # repeat for `Cc1ccc(C(=O)CCN[C@H](C)[C@@H](O)c2ccccc2)cc1.Cl`
Reply: 22

Task item: Another compound: `C[C@@H](NCCC(=O)c1cccc([N+](=O)[O-])c1)[C@@H](O)c1ccccc1.Cl`
Reply: 18

Task item: And `COc1ccc(C(=O)CCN[C@H](C)[C@@H](O)c2ccccc2)cc1.Cl` ?
Reply: 19

Task item: Next up: `C[C@H](NCCC(=O)c1ccc(Cl)cc1)[C@H](O)c1ccccc1.Cl`
Reply: 28

Task item: Queued: `C[C@H](NCCC(=O)c1ccccc1)[C@H](O)c1ccccc1.Cl`
Reply: 30

Task item: Check `C[C@@H](NCCC(=O)c1ccc(Cl)cc1Cl)[C@@H](O)c1ccccc1.Cl` too.
Reply: 28

Task item: Item: `C[C@H](NCCC(=O)c1cccc([N+](=O)[O-])c1)[C@H](O)c1ccccc1.Cl`
Reply: 19

* * *

# Test system: Klebsiella pneumoniae
# assay-summary: Antibacterial activity against Klebsiella pneumoniae after 24 hrs by two fold serial dilution method
# Assay type: functional
measured-property: MIC (µg/mL)
Expressed in µg/mL, but write only the number.

Task item: Item `C[C@@H](NCCC(=O)c1ccc(Cl)cc1)[C@@H](O)c1ccccc1.Cl` has what recorded MIC?
Reply: 50

Task item: Also, `Cc1ccc(C(=O)CCN[C@H](C)[C@@H](O)c2ccccc2)cc1.Cl` please.
Reply: 50

Task item: Same lookup for `C[C@H](NCCC(=O)c1ccccc1)[C@H](O)c1ccccc1.Cl` , please.
Reply: 25

Task item: Check `C[C@H](NCCC(=O)c1ccc(Cl)cc1)[C@H](O)c1ccccc1.Cl` too.
Reply: 50

Task item: Similarly, `C[C@H](NCCC(=O)c1cccc(O)c1)[C@H](O)c1ccccc1.Cl` ?
Reply: 25

Task item: Can you handle `C[C@@H](NCCC(=O)c1cccc(O)c1)[C@@H](O)c1ccccc1.Cl` next?
Reply: 50

Task item: Another compound: `C[C@@H](NCCC(=O)c1ccccc1)[C@@H](O)c1ccccc1.Cl`
Reply: 50

Task item: Check CN[C@@H]1[C@H](O[C@H]2[C@H](O[C@H]3[C@H](O)[C@@H](O)[C@H](N=C(N)N)[C@@H](O)[C@@H]3N=C(N)N)O[C@@H](C)[C@]2(O)C=O)O[C@@H](CO)[C@H](O)[C@H]1O [STREPTOMYCIN] too.
Reply: 25

* * *

Record form. Attribute: inhibition zone (IZ). Fill in for each entry.
# System: Staphylococcus aureus
# assay-summary: Antibacterial activity against Staphylococcus aureus assessed as growth inhibition at 1 mg/well after 24 hrs by Well method
# Type: functional
The reply should contain only the number, in mm.

Task item: Would you mind telling me what inhibition zone (IZ) value was observed for `Cc1ccc(C(=O)CCN[C@@H](C)[C@H](O)c2ccccc2)cc1.Cl` ?
Reply: 22

Task item: # repeat for `C[C@@H](NCCC(=O)c1cccc(O)c1)[C@@H](O)c1ccccc1.Cl`
Reply: 20

Task item: Then `C[C@H](NCCC(=O)c1ccc(Cl)cc1Cl)[C@H](O)c1ccccc1.Cl` ?
Reply: 36

Task item: Now try `C[C@H](NCCC(=O)c1ccc(Cl)cc1)[C@H](O)c1ccccc1.Cl` .
Reply: 26

Task item: Now give it for `C[C@H](NCCC(=O)c1ccccc1)[C@H](O)c1ccccc1.Cl` too.
Reply: 27

Task item: Next entry: `C[C@H](NCCC(=O)c1cccc([N+](=O)[O-])c1)[C@H](O)c1ccccc1.Cl`
Reply: 15
